Data provenance: ChEMBL document CHEMBL6096697

Would you kindly list inhibition for each of these compounds?
- TARGET UNDER TEST: Cyclin-dependent kinase 2/cyclin A (Homo sapiens) (UniProt P24941+P20248+P78396)
- ASSAY NOTES: Inhibition of CDK2/cyclin A (unknown origin) using […] at 1 uM incubated for 40 mins in presence of ATP by Kinase-Glo assay relative to control
- Assay type: protein-complex assay
Give bare numbers, in %.

Guide cases for inhibition, answers given:
[[record]]
test_smiles = "Cc1cnc(Nc2ccc(S(=O)(=O)N3CCOCC3)cc2)nc1Nc1nccs1"
target_under_test = "Cyclin-dependent kinase 2/cyclin A (Homo sapiens) (UniProt P24941+P20248+P78396)"
attribute_measured = "inhibition"
experimental_value = 79

[[record]]
test_smiles = "CCOC(=O)c1sc(Nc2nc(Nc3ccc(S(N)(=O)=O)cc3)ncc2C)nc1C"
target_under_test = "Cyclin-dependent kinase 2/cyclin A (Homo sapiens) (UniProt P24941+P20248+P78396)"
attribute_measured = "inhibition"
experimental_value = 81

[[record]]
test_smiles = "Cc1cnc(Nc2nc(Nc3ccc(S(N)(=O)=O)cc3)ncc2C)s1"
target_under_test = "Cyclin-dependent kinase 2/cyclin A (Homo sapiens) (UniProt P24941+P20248+P78396)"
attribute_measured = "inhibition"
experimental_value = 78


Then there is this compound:
Look up inhibition: Cc1cnc(Nc2ccc(S(=O)(=O)NC(C)C)cc2)nc1Nc1nccs1
81
